Target: Protein farnesyltransferase/geranylgeranyltransferase type-1 subunit alpha (Bos taurus, UniProt P29702)
Assay: PFT IC50 Determination
Conditions: pH 7.5; 37 °C
Procedure: Assays for PFT activity were performed with a PFT-specific scintillation assay (SPA) kit (Amersham Biosciences, Piscataway, NJ). IC50 values were calculated using linear regression analysis of the plots of [3H] farnesyl pyrophosphate (FPP) prenylation versus concentration of compounds.
test.readout: pIC50
The scale used: pIC50 is minus the common logarithm of the concentration in molar units.

// query Which pIC50 reading was recorded for the compound CSCC[C@H](NC(=O)[C@H](Cc1ccc(O)c(C)c1C)NC(=O)[C@@H](NC(=O)[C@@H](N)CS)C(C)C)C(=O)O ?
// result 7.00
